Source of measurements: paper PMC8071537

Test: in vivo
Conditions: male, Sprague-Dawley, rat, po, 20 mg/kg
readout-type: Cmax (µg/mL)

> print(dat)
                                   compound  result.units  measured.value
1  CC[C@@]1(O)C(=O)OCc2c1cc1n(c2=O)Cc2cc3c(CN(C)C)c(O)ccc3nc2-1         µg/mL           0.727

---

Assay: in vivo
Conditions: male, Sprague-Dawley, rat, po, 20 mg/kg
readout-type: Tmax

> print(dat)
                                   compound  measured.value
1  CC[C@@]1(O)C(=O)OCc2c1cc1n(c2=O)Cc2cc3c(CN(C)C)c(O)ccc3nc2-1    30 to 60 min

---

Experiment: Pharmacokinetics of oral TPT in rats with or without dual inhibitor candidates or formulation
Conditions: male, Sprague-Dawley, rat, in vivo, 20 mg/kg
readout-type: Vd/F (L)

> print(dat)
                                   compound  measured.value
1  CC[C@@]1(O)C(=O)OCc2c1cc1n(c2=O)Cc2cc3c(CN(C)C)c(O)ccc3nc2-1            42.1

---

Assay: in vivo
Details: male, Sprague-Dawley, rat, po, 20 mg/kg
readout-type: AUC(0-inf)

> print(dat)
                                   molecule  readout.type  measured.value
1  CC[C@@]1(O)C(=O)OCc2c1cc1n(c2=O)Cc2cc3c(CN(C)C)c(O)ccc3nc2-1 [TPT, Topotecan]    AUC(0-inf)    2360 ng·h/mL

---

Assay: Pharmacokinetics of oral TPT in rats with or without dual inhibitor candidates or formulation
Details: male, Sprague-Dawley, rat, in vivo, 20 mg/kg
readout-type: half-life (h)

> print(dat)
                                   compound  readout.type  measured.value
1  CC[C@@]1(O)C(=O)OCc2c1cc1n(c2=O)Cc2cc3c(CN(C)C)c(O)ccc3nc2-1     half-life            3.39
